Measured Percent Similarity Score (KD on rN), listed per entry for reference.
- tested.system: T1, rat NGF (rat, UniProt P25427 122-241)
- T1 construct: also called rN
- T1 sequence (P25427 122-241 limits assumed): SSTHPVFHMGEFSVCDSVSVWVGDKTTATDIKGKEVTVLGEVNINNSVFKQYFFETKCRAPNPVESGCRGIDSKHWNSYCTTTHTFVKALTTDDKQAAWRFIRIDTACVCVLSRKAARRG
- test.protocol: SPR (Biacore T200), 100 nM mAb on NGF chip, similarity to parent mAb
Numeric answer only, unit % assumed.

Past entries and their recorded results:
can9L12VH_F27A (antibody, V domains shown) VH: EVQLVESGGDLVKPGGSLRLSCVASGATFSSHGMHWVRQSPGKGLQWVAVINSGGSSTYYTDAVKGRFTISRDNAKNTVYLQMNSLRAEDTAMYYCAKESVGGWEQLVGPHFDYWGQGTLVIVSS VL: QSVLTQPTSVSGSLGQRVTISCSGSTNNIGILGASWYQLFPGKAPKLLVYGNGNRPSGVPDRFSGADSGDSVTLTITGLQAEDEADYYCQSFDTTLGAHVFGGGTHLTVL ... 100
can48L2VH_G54A (antibody, V domains shown, CDR scanning mutant of ZTS-842 (48L2)) VH: EVQLVESGGDLVKPGGSLRLSCVASGFTFSTYGINWVRQAPGKGLQWVAYISSAGSSTYYADPVKGRFTISRDDAKNMLYLQMNSLRAEDTAIYYCAGSRYTYAYGGGYEFHFWGQGTLVTVSS VL: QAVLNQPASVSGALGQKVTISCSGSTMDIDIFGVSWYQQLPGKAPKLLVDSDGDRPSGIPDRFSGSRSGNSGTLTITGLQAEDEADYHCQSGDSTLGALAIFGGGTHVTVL ... 99.3
can48L2VL_G97A (antibody, V domains shown, CDR scanning mutant of ZTS-842 (48L2)) VH: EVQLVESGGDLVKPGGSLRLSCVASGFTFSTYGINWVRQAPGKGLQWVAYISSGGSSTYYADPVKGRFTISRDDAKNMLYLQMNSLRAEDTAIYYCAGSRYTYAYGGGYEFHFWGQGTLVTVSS VL: QAVLNQPASVSGALGQKVTISCSGSTMDIDIFGVSWYQQLPGKAPKLLVDSDGDRPSGIPDRFSGSRSGNSGTLTITGLQAEDEADYHCQSGDSTLAALAIFGGGTHVTVL ... 99.6
can48L2VL_D93A (antibody, V domains shown, CDR scanning mutant of ZTS-842 (48L2)) VH: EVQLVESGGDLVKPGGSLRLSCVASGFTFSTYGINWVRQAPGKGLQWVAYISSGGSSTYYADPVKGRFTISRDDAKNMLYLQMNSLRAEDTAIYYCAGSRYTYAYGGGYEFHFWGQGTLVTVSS VL: QAVLNQPASVSGALGQKVTISCSGSTMDIDIFGVSWYQQLPGKAPKLLVDSDGDRPSGIPDRFSGSRSGNSGTLTITGLQAEDEADYHCQSGASTLGALAIFGGGTHVTVL ... 99.5
can9L12VL_G53A (antibody, V domains shown) VH: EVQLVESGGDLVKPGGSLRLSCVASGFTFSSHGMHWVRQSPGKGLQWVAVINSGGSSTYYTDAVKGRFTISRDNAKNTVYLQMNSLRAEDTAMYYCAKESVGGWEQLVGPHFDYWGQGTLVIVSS VL: QSVLTQPTSVSGSLGQRVTISCSGSTNNIGILGASWYQLFPGKAPKLLVYGNANRPSGVPDRFSGADSGDSVTLTITGLQAEDEADYYCQSFDTTLGAHVFGGGTHLTVL ... 11.7

# input Entry can9L12VL_F92A (antibody, V domains shown) VH: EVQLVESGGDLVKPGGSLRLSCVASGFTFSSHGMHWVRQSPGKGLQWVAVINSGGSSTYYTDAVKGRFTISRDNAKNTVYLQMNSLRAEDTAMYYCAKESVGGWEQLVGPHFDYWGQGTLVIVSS VL: QSVLTQPTSVSGSLGQRVTISCSGSTNNIGILGASWYQLFPGKAPKLLVYGNGNRPSGVPDRFSGADSGDSVTLTITGLQAEDEADYYCQSADTTLGAHVFGGGTHLTVL needs its Percent Similarity Score (KD on rN) filled in; supply it.
# output 2.3

# input Determine from records and report Percent Similarity Score (KD on rN) for can48L2VH_T58A (antibody, V domains shown, CDR scanning mutant of ZTS-842 (48L2)) VH: EVQLVESGGDLVKPGGSLRLSCVASGFTFSTYGINWVRQAPGKGLQWVAYISSGGSSAYYADPVKGRFTISRDDAKNMLYLQMNSLRAEDTAIYYCAGSRYTYAYGGGYEFHFWGQGTLVTVSS VL: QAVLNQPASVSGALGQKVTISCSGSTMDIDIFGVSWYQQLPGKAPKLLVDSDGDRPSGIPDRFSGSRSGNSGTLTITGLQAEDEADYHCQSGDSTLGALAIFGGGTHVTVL
# output 99.7

# input Output measured Percent Similarity Score (KD on rN) for this item: can9L12VH_G54A (antibody, V domains shown) VH: EVQLVESGGDLVKPGGSLRLSCVASGFTFSSHGMHWVRQSPGKGLQWVAVINSAGSSTYYTDAVKGRFTISRDNAKNTVYLQMNSLRAEDTAMYYCAKESVGGWEQLVGPHFDYWGQGTLVIVSS VL: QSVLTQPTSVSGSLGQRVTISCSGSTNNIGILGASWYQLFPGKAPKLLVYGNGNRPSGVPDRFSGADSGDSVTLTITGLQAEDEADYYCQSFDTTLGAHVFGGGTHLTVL
# output 93.8

# input Quick one: give measured Percent Similarity Score (KD on rN) for can48L2VL_F32A (antibody, V domains shown, CDR scanning mutant of ZTS-842 (48L2)) VH: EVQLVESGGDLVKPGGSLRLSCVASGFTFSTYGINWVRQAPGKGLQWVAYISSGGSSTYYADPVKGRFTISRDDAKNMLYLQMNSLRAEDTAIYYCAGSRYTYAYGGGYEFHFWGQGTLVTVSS VL: QAVLNQPASVSGALGQKVTISCSGSTMDIDIAGVSWYQQLPGKAPKLLVDSDGDRPSGIPDRFSGSRSGNSGTLTITGLQAEDEADYHCQSGDSTLGALAIFGGGTHVTVL
# output 66

# input Name the recorded Percent Similarity Score (KD on rN) of the item can48L2VL_L99A (antibody, V domains shown, CDR scanning mutant of ZTS-842 (48L2)) VH: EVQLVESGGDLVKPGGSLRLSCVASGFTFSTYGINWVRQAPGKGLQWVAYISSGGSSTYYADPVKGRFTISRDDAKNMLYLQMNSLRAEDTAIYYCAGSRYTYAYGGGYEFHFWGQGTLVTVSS VL: QAVLNQPASVSGALGQKVTISCSGSTMDIDIFGVSWYQQLPGKAPKLLVDSDGDRPSGIPDRFSGSRSGNSGTLTITGLQAEDEADYHCQSGDSTLGAAAIFGGGTHVTVL in your answer.
# output 98.4
